system: U2OS; assay: Incucyte cell viability with U2OS; assay type: toxicity, cell-based; conditions: human, 6 h, 10 µM, compound concentration 10 uM, replicate number 2; further: unitless GR value; below 1 slowed growth and below 0 cell loss
Numbered stars: 1 amine (or outer) side, 2 acyl side, 3 side chain; on linkers, the order of the positions; unused ones are H or OH. Bridge positions count the residues as written; N and C are the ends. Square brackets hold non-standard residues; d marks the D form. Peptide text beside a SMILES is read from it. I, II: the chains in the order shown. Hexamethylenediamine = C(CCCN[*:2])CCN[*:1]; Dip = N[C@H](C(=O)O)C(c1ccccc1)c1ccccc1; Chg = N[C@H](C(=O)O)C1CCCCC1; NMeA = CN[C@@H](C)C(=O)O
Grouping key: Growth Rate. Bins: LOW: < 0.4; MEDIUM: ≥ 0.4 and < 0.8; HIGH: ≥ 0.8

{"Compound": "O=C(NCc1ccc(F)cc1)C1CCN(S(=O)(=O)c2cc(Cl)cc(Cl)c2)CC1", "Class Assignment": "MEDIUM"}
{"Compound": "COc1cc(OC)c(NC(=O)Nc2cc(C)on2)cc1Cl", "Class Assignment": "HIGH"}
{"Compound": "CCc1cncnc1N1CCN(Cc2nc3cc(C(F)(F)F)ccc3[nH]2)CC1", "Class Assignment": "LOW"}
{"Compound": "Cc1cc(C)nc(Nc2ncc(C(=O)NCCc3c(C)[nH]c4ccccc34)cn2)c1.Cl", "Class Assignment": "MEDIUM"}
{"Compound": "O=C(Cc1ccccc1[N+](=O)[O-])Nc1ccc(-c2ccc(C(O)(C(F)(F)F)C(F)(F)F)cc2F)cc1", "Class Assignment": "HIGH"}
{"Compound": "CN1C(=O)c2ccccc2N(C)c2nc(Nc3cnn(C4CCNCC4)c3)ncc21", "Class Assignment": "LOW"}
{"Compound": "C=C[C@@]12CCc3cc(O)ccc3[C@H]1CC[C@@]1(C)[C@H]2CC[C@@H]1O", "Class Assignment": "HIGH"}
{"Compound": "CN[C@@H]1CC[C@@H](c2ccc(Cl)c(Cl)c2)c2ccccc21.Cl", "Class Assignment": "LOW"}
{"Compound": "CN(C)Cc1cccc(NC(=C2C(=O)Nc3cc(C(=O)N(C)C)ccc32)c2ccccc2)c1", "Class Assignment": "HIGH"}
{"Compound": "CNC1(C)C2CCC(C2)C1(C)C.Cl (centres undefined) [MECAMYLAMINE HYDROCHLORIDE]", "Class Assignment": "LOW"}
{"Compound": "CCN(c1ccccc1)c1cc(NC)[n+](C)c(C)n1.[Cl-]", "Class Assignment": "MEDIUM"}
{"Compound": "COc1cc(Nc2cnc(C#N)c(O[C@H](C)CN(C)C)n2)ncc1-c1cnn(C)c1", "Class Assignment": "MEDIUM"}
{"Compound": "CN(Cc1cccc(F)c1CNc1cc(F)c(S(=O)(=O)Nc2cscn2)c(F)c1)C(C)(C)C", "Class Assignment": "MEDIUM"}
{"Compound": "CCc1ccc(N(CC(C)C)S(=O)(=O)c2ccc(OCC3CCOCC3)c(CO)c2)cc1", "Class Assignment": "HIGH"}
{"Compound": "Cn1cc(-n2cnc3c(NCc4nc5cc(Cl)c(Cl)cc5[nH]4)nc(N4CCOCC4)nc32)cn1", "Class Assignment": "LOW"}
{"Compound": "Cc1cc(Nc2cc(N)ncn2)c(=O)n2c1C(=O)NC21CCCCC1", "Class Assignment": "MEDIUM"}
{"Compound": "Cc1cc(Nc2ncc(Cl)c(Nc3ccccc3S(=O)(=O)C(C)C)n2)c(OC(C)C)cc1C1CCNCC1", "Class Assignment": "LOW"}
{"Compound": "CC(C)(C)C1CCc2c(sc(NC(=O)c3ccco3)c2C(=O)O)C1 (centres undefined)", "Class Assignment": "HIGH"}
{"Compound": "C[C@H](NC(=O)c1cc(Cl)ccc1Oc1ccc(F)cc1)c1ccc(C(=O)O)cc1", "Class Assignment": "HIGH"}
{"Compound": "COC(=O)C1=C(C)NC(C)=C(C(=O)OC(C)C)C1c1cccc2nonc12 (centres undefined)", "Class Assignment": "HIGH"}
{"Compound": "NC(=O)c1sc2nc(N3CCC(NC[C@H](O)c4ccccn4)CC3)cc(C(F)(F)F)c2c1N", "Class Assignment": "LOW"}
{"Compound": "O=C1C[C@@H]2OCC=C3CN4CC[C@]56c7ccccc7N1[C@H]5[C@H]2[C@H]3C[C@H]46", "Class Assignment": "MEDIUM"}
{"Compound": "CN[C@@H](C)C(=O)N[C@H](C(=O)N1CCC[C@H]1C(=O)N[C@H](C(=O)NCCCCCCNC(=O)[C@@H](NC(=O)[C@@H]1CCCN1C(=O)[C@@H](NC(=O)[C@H](C)NC)C1CCCCC1)C(c1ccccc1)c1ccccc1)C(c1ccccc1)c1ccccc1)C1CCCCC1 (I: H-[NMeA][Chg]P[Dip] / II: H-[NMeA][Chg]P[Dip]; linker I:C-II:C via Hexamethylenediamine)", "Class Assignment": "LOW"}
{"Compound": "CNc1ncc2cc(-c3ccc(-c4cccc(C)n4)cc3Cl)c(=O)n(C[C@H]3OC[C@H](N)CO3)c2n1", "Class Assignment": "LOW"}
{"Compound": "Cc1c(-c2cc(-c3ccccc3Cl)no2)cnn1C1CCNCC1.Cl", "Class Assignment": "LOW"}
{"Compound": "CCOP(=O)(OCC)C(=Cc1cc(C(C)(C)C)c(O)c(C(C)(C)C)c1)P(=O)(OCC)OCC", "Class Assignment": "LOW"}
{"Compound": "Cc1cc(OC2CCS(=O)(=O)CC2)cc(C)c1-c1cccc(COc2ccc(C(=O)O)c(F)c2)c1", "Class Assignment": "MEDIUM"}
{"Compound": "CC(C)[C@H](C(=O)Nc1ccc(C(=O)NO)cc1)c1ccccc1", "Class Assignment": "MEDIUM"}
{"Compound": "COc1c(NC(=O)c2cc3cccc(Oc4ccnc(C(=O)N5CCN(C)CC5)c4)c3n2C)cc(C(C)(C)C)cc1NS(C)(=O)=O", "Class Assignment": "MEDIUM"}
{"Compound": "CCOc1ccc(S(=O)(=O)Nc2ccc(Cl)cc2C#Cc2cnc(C(=O)[O-])cc2OC)c2ncccc12.[K+]", "Class Assignment": "MEDIUM"}
{"Compound": "CN(C(=O)c1ccccc1)c1ccc2c(c1)nc(NC(=O)c1ccc(Br)s1)n2CCC(N)=O", "Class Assignment": "HIGH"}
{"Compound": "Cc1cc(-c2ccnc(Nc3cnn(C)c3)n2)ccc1CNC(=O)N1CC(OC(C)C)C1", "Class Assignment": "HIGH"}

====

system: U2OS; test: Incucyte cell viability with U2OS; type: toxicity, cell-based; details: human, 24 h, 10 µM, compound concentration 10 uM, replicate number 1; further: unitless GR value; below 1 slowed growth and below 0 cell loss
Kind request: treat 0.7 as inclusive, so Growth Rate at 0.7 or higher is true (1), anything lower is false (0).

{"Molecule": "O=C(Nc1cccc(C(F)(F)F)c1)c1cc(Cl)ccc1O", "Class Assignment": "false (0)"}
{"Molecule": "NC(=O)c1ccc(-c2nc(-c3ccc4c(c3)OCO4)c(-c3ccccn3)[nH]2)cc1.O", "Class Assignment": "true (1)"}
{"Molecule": "O=C1CN(c2ccccc2F)C(NCCN2CCOCC2)=C1c1nc2cc(Br)ccc2c(=O)[nH]1", "Class Assignment": "true (1)"}
{"Molecule": "Cl.NC(=O)c1ccccc1Nc1nc(-c2ccc(N3CCOCC3)cc2)cc2ncccc12", "Class Assignment": "false (0)"}
{"Molecule": "COCCN(C)c1ccc(NC(=O)/C=C(\\C)c2ccc3ccccc3c2)c(C(=O)O)c1", "Class Assignment": "true (1)"}
{"Molecule": "Cn1c(=O)n(CCCO)c(=O)c2c1nc(Oc1cccc(OC(F)(F)F)c1)n2Cc1ccc(Cl)cc1", "Class Assignment": "true (1)"}
{"Molecule": "CCCS(=O)(=O)Nc1ccc(F)c(Nc2ncnc3cnc(-n4cnc(C)c4)nc23)c1F", "Class Assignment": "true (1)"}
{"Molecule": "COc1ccccc1-n1nc(C2CC(C)(C)OC(C)(C)C2)cc1-c1ccc(Cl)cc1", "Class Assignment": "true (1)"}
{"Molecule": "C[S+]([O-])c1ccc(-c2nc(-c3cccc(I)c3)c(-c3ccncc3)[nH]2)cc1 (stereo not drawn)", "Class Assignment": "true (1)"}
{"Molecule": "CC(C)(O)[C@H]1CC[C@H](Nc2ccc3ncc(-c4cccc(C(F)(F)F)c4)n3n2)CC1", "Class Assignment": "false (0)"}
{"Molecule": "CC(C)S(=O)(=O)c1ccccc1Nc1nc(N[C@@H]2CCCN(CCCCCCCNC(=O)COc3cccc4c3C(=O)N(C3CCC(=O)N(C)C3=O)C4=O)C2)ncc1Cl (stereo partly drawn)", "Class Assignment": "false (0)"}
{"Molecule": "Cc1cc(C)c(NC(=O)C2CC3CCC2C3)c(C)c1 (stereo not drawn)", "Class Assignment": "true (1)"}
{"Molecule": "CN(C)CCCn1cc(C2=C(c3c[nH]c4ccccc34)C(=O)NC2=O)c2ccccc21", "Class Assignment": "true (1)"}
{"Molecule": "COc1cc(F)ccc1-c1cc(Nc2cc(CS(C)(=N)=O)ccn2)ncc1F (stereo not drawn)", "Class Assignment": "false (0)"}
{"Molecule": "CC1CCN(C(=O)[C@@H](CCn2cccc2C#N)NS(=O)(=O)c2cccc3[nH]ccc23)CC1", "Class Assignment": "true (1)"}
{"Molecule": "CCCCc1c(-c2ccccc2)nc(N)nc1-c1ccc(OCc2ccccc2)c(F)c1F", "Class Assignment": "true (1)"}
